system: K-562 leukemia; test: NCI-60 one-dose screen, 48 h; conditions: 10 µM unless noted
The panel holds about 83,000 compounds, 20% with a hit somewhere; the sample as a whole holds those more often. The source made the active and inactive calls. How the source made its calls: active means growth percent below 10; inactive means the rest.
Respond with a class label; see class 1 for active, class 0 for inactive

Below, 5 compounds whose answers are already recorded.
{"columns": ["compound", "target.system", "assigned.category"],
 "data": [
  ["CN1CCN(C(=O)COc2ccc(/C=C3\\CC4C5CC=C6CC(Cl)CCC6(C)C5CCC4(C)C3=O)cc2)CC1 (stereo unspecified)", "K-562 leukemia", "class 0"],
  ["CCN1CC2(CN(CC)C1=S)C(=O)NC(=O)NC2=O", "K-562 leukemia", "class 0"],
  ["O=C1c2ccccc2C(=O)N1[N+](=O)[O-]", "K-562 leukemia", "class 0"],
  ["CC(/C=N/N=C(N)N)=N\\N=C(N)N", "K-562 leukemia", "class 0"],
  ["CCC(CO)NC1CCCCC1 (stereo unspecified)", "K-562 leukemia", "class 0"]
]}

Query :: Field: outcome | Entry: C[C@]12CC[C@H](OC3OC(O)C(O)C(O)C3O)C=C1CCC1C2CC[C@]2(C)[C@@H](c3ccc(=O)oc3)CC[C@]12O (stereo partly specified)
Result :: class 1

Query :: Field: outcome | Entry: Cc1ccc(C(=O)C2CN(C)CCC2(O)c2ccc(C)cc2)cc1 (stereo unspecified)
Result :: class 0

Query :: Field: outcome | Entry: `CC1(C)N=C(N)N=C(N)N1c1ccc(OCCCCOc2ccc(S(=O)(=O)F)cc2)c(Cl)c1`
Result :: class 0

Query :: Field: outcome | Entry: O=C(c1cccs1)C1NO[N+]([O-])=C1c1cccs1 (stereo unspecified)
Result :: class 0

Query :: Field: outcome | Entry: Fc1ccc(C2=NN(c3ccccc3)C(c3sc(N(CCCl)CCCl)nc3Cl)C2)cc1 (stereo unspecified)
Result :: class 0

Query :: Field: outcome | Entry: `CC(=O)[O][Hg][c]1nc2c(c(=O)n(C)c(=O)n2C)n1C`
Result :: class 0

Data origin, for the record: PubChem BioAssay (NCI)
